Organism: Homo sapiens
Assay: Binding affinity to human IgG assessed as dissociation rate constant by SPR analysis
Bridge positions count the residues as written; N and C are the ends. Square brackets hold non-standard residues; d marks the D form. Peptide text beside a SMILES is read from it. ξ: configuration not given here. ξ2Pal = NC(Cc1ccccn1)C(=O)O; ξ3Pal = NC(Cc1cccnc1)C(=O)O; ξ4Pal = NC(Cc1ccncc1)C(=O)O; ξ2Thi = NC(Cc1cccs1)C(=O)O; ξCha = NC(CC1CCCCC1)C(=O)O
quantity: log10 of Kdiss (log10 of the value in s⁻¹)
# values: log10(Kdiss), units s⁻¹

Field: example entries. Status: answers known.
CC(=O)N[C@@H](CC(=O)O)C(=O)N[C@H]1CSSC[C@@H](C(=O)N[C@H](C(=O)N[C@@H](Cc2ccccc2)C(=O)NC(Cc2ccccn2)C(=O)O)[C@@H](C)O)NC(=O)[C@H](Cc2c[nH]c3ccccc23)NC(=O)[C@H](C(C)C)NC(=O)[C@H](CC(C)C)NC(=O)[C@H](CCC(=O)O)NC(=O)CNC(=O)[C@H](CCCCN)NC(=O)[C@H](Cc2cnc[nH]2)NC(=O)[C@H](Cc2ccc(O)cc2)NC(=O)[C@H](C)NC1=O (mixture of isomers): -1.17
CC(=O)N[C@@H](CC(=O)O)C(=O)N[C@H]1CSSC[C@@H](C(=O)N[C@H](C(=O)N[C@@H](Cc2ccccc2)C(=O)N[C@H](Cc2ccccn2)C(N)=O)[C@@H](C)O)NC(=O)[C@H](Cc2c[nH]c3ccccc23)NC(=O)[C@H](C(C)C)NC(=O)[C@H](CC(C)C)NC(=O)[C@H](CCC(=O)O)NC(=O)CNC(=O)[C@H](CCCCN)NC(=O)[C@H](Cc2cnc[nH]2)NC(=O)[C@H](Cc2ccc(O)cc2)NC(=O)[C@H](C)NC1=O: -0.46
CC(=O)N[C@@H](CC(=O)O)C(=O)N[C@H]1CSSC[C@@H](C(=O)N[C@H](C(=O)N[C@@H](Cc2ccccc2)C(=O)NC(Cc2cccs2)C(N)=O)[C@@H](C)O)NC(=O)[C@H](Cc2c[nH]c3ccccc23)NC(=O)[C@H](C(C)C)NC(=O)[C@H](CC(C)C)NC(=O)[C@H](CCC(=O)O)NC(=O)CNC(=O)[C@H](CCCCN)NC(=O)[C@H](Cc2cnc[nH]2)NC(=O)[C@H](Cc2ccc(O)cc2)NC(=O)[C@H](C)NC1=O (some centres undefined) (Ac-DCAYHKGELVWCTF[ξ2Thi]-NH2; disulfide 2-12): -0.77
CC(=O)N[C@@H](CC(=O)O)C(=O)N[C@H]1CSSC[C@@H](C(=O)N[C@H](C(=O)N[C@@H](Cc2ccccc2)C(=O)NC(Cc2ccccn2)C(=O)O)[C@@H](C)O)NC(=O)[C@H](Cc2c[nH]c3ccccc23)NC(=O)[C@H](C(C)C)NC(=O)[C@H](CC(C)C)NC(=O)[C@H](CCC(=O)O)NC(=O)CNC(=O)[C@H](CC(C)C)NC(=O)[C@H](Cc2cnc[nH]2)NC(=O)[C@H](Cc2ccc(O)cc2)NC(=O)[C@H](C)NC1=O (some centres undefined) (Ac-DCAYHLGELVWCTF[ξ2Pal]-OH; disulfide 2-12): -2.48
CC(=O)N[C@@H](CC(=O)O)C(=O)N[C@H]1CSSC[C@@H](C(=O)N[C@H](C(=O)N[C@@H](Cc2ccccc2)C(=O)NC(CC2CCCCC2)C(N)=O)[C@@H](C)O)NC(=O)[C@H](Cc2c[nH]c3ccccc23)NC(=O)[C@H](C(C)C)NC(=O)[C@H](CC(C)C)NC(=O)[C@H](CCC(=O)O)NC(=O)CNC(=O)[C@H](CCCCN)NC(=O)[C@H](Cc2cnc[nH]2)NC(=O)[C@H](Cc2ccc(O)cc2)NC(=O)[C@H](C)NC1=O (some centres undefined) (Ac-DCAYHKGELVWCTF[ξCha]-NH2; disulfide 2-12): -0.89

Output measured log10 of Kdiss for this item: `CC(=O)N[C@@H](CC(=O)O)C(=O)N[C@H]1CSSC[C@@H](C(=O)N[C@H](C(=O)N[C@@H](Cc2ccccc2)C(=O)N[C@H](Cc2ccccn2)C(N)=O)[C@@H](C)O)NC(=O)[C@H](Cc2c[nH]c3ccccc23)NC(=O)[C@H](C(C)C)NC(=O)[C@H](CC(C)C)NC(=O)[C@H](CCC(=O)O)NC(=O)CNC(=O)[C@H](CC(C)C)NC(=O)[C@H](Cc2cnc[nH]2)NC(=O)[C@H](Cc2ccc(O)cc2)NC(=O)[C@H](C)NC1=O`
-1.52

Output measured log10 of Kdiss for this item: CC(=O)N[C@@H](CC(=O)O)C(=O)N[C@H]1CSSC[C@@H](C(=O)N[C@H](C(=O)N[C@@H](Cc2ccccc2)C(=O)N[C@@H](C)C(N)=O)[C@@H](C)O)NC(=O)[C@H](Cc2c[nH]c3ccccc23)NC(=O)[C@H](C(C)C)NC(=O)[C@H](CC(C)C)NC(=O)[C@H](CCC(=O)O)NC(=O)CNC(=O)[C@H](CCCCN)NC(=O)[C@H](Cc2cnc[nH]2)NC(=O)[C@H](Cc2ccc(O)cc2)NC(=O)[C@H](C)NC1=O (Ac-DCAYHKGELVWCTFA-NH2; disulfide 2-12)
-0.32

Output measured log10 of Kdiss for this item: CC(=O)N[C@@H](CC(=O)O)C(=O)N[C@H]1CSSC[C@@H](C(=O)N[C@H](C(=O)N[C@@H](Cc2ccccc2)C(=O)NC(Cc2ccncc2)C(N)=O)[C@@H](C)O)NC(=O)[C@H](Cc2c[nH]c3ccccc23)NC(=O)[C@H](C(C)C)NC(=O)[C@H](CC(C)C)NC(=O)[C@H](CCC(=O)O)NC(=O)CNC(=O)[C@H](CCCCN)NC(=O)[C@H](Cc2cnc[nH]2)NC(=O)[C@H](Cc2ccc(O)cc2)NC(=O)[C@H](C)NC1=O (some centres undefined) (Ac-DCAYHKGELVWCTF[ξ4Pal]-NH2; disulfide 2-12)
-0.41

Output measured log10 of Kdiss for this item: CC(=O)N[C@@H](CC(=O)O)C(=O)N[C@H]1CSSC[C@@H](C(=O)N[C@H](C(=O)N[C@@H](Cc2ccccc2)C(=O)NC(Cc2cccnc2)C(N)=O)[C@@H](C)O)NC(=O)[C@H](Cc2c[nH]c3ccccc23)NC(=O)[C@H](C(C)C)NC(=O)[C@H](CC(C)C)NC(=O)[C@H](CCC(=O)O)NC(=O)CNC(=O)[C@H](CCCCN)NC(=O)[C@H](Cc2cnc[nH]2)NC(=O)[C@H](Cc2ccc(O)cc2)NC(=O)[C@H](C)NC1=O (some centres undefined) (Ac-DCAYHKGELVWCTF[ξ3Pal]-NH2; disulfide 2-12)
-0.37
